// reported pKd for each item listed
- study target: T1, human TNFR2 (extracellular domain) (UniProt P20333 23-257)
- T1 chain: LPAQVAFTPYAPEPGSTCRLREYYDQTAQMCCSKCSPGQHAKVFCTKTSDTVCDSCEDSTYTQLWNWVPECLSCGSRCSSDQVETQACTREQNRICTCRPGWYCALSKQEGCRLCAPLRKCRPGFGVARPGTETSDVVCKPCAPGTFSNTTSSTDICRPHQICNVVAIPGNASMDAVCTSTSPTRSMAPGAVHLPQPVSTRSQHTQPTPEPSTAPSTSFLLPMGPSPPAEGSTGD
- test details: binding affinity
pKd: −log10 of the molar value.
reported metric: pKd

binder: ODY-37C7 (VHH) VHH: EVQLVESGGGLVQPGGSLRLSCAASGFTFDDIAMTWVRQAPGKGLEWVSSIYSYGPNTYYADSVKGRFTISTDSAKNTLYLQMNSLKPEDTAVYYCAADSDLSTVVVGPHDYWGQGTQVTVSS
recorded measurement: 7.89
//
binder: ODY-33D4 (VHH) VHH: EVQLVESGGGLVQAGGSLRLSCAASGRTFSDYGMGWFRQAPGKDSEFVAAINWSNGRTNYADSVKGRFTISRDNAKNTGYLEMNSLKVEDTAVYYCAATPSGKAYSYWGQGTQVTVSS
recorded measurement: 8.25
//
binder: ODY-31D6 (VHH) VHH: EVQLVESGGGLVQAGGSLRLSCAASGSIVSTNGMGWHRQVPGKGRELVAGIRSDGFTNYADSVKGRFTISSDNVKNTVYLQMNSLKAEDSGVYFCYYQALSSPNYGQTFWGQGTQVTVSS
recorded measurement: 7.72
//
binder: ODY-31G3 (VHH) VHH: EVQLVESGGGLVQAGGSLRVSCAASGSIFRADAMGWHRQVPGKPREFVAGIRSDGFTNYAEAVKGRFTISWDTVKNTVYLQMNSLKPEDTAVYTCYYQSLSSPNYGQVFWGQGTQVTVSS
recorded measurement: 8.10

Taken from patent US20260217845A1.
